- System: monocotyledonous and dicotyledonous weed
- procedure text: Post-emergence test, weed control effect (Tables 6 and 7)
- Type: in vivo
- Design: key: 10: completely dead; above 90% growth inhibition rate; above 80% growth inhibition rate; above 70% growth inhibition rate; above 60% growth inhibition rate; above 50% growth inhibition rate; above 40% growth inhibition rate; above 30% growth inhibition rate; above 20% growth inhibition rate; 1: below 20% growth inhibition rate; 0: no effect
- condition label: Dose 1000 g/ha, after 3 weeks
readout type: weed control effect (activity level), Veronica polita
Lab note: record just the number, no unit beside it.

// known answers, use as guide
Oc1cc(Cl)nnc1-c1ccnc(F)c1F [Compound 2-10] : 10
Oc1cc(Cl)nnc1-c1ccnc(Cl)c1 [Compound 2-5] : 10
Oc1cc(Cl)nnc1-c1cc(F)ncc1F [Compound 2-11] : 10
Oc1cc(Cl)nnc1-c1cc(F)nc(Cl)c1 [Compound 2-23] : 10
Oc1cc(Cl)nnc1-c1cc(F)nc(F)c1 [Compound 2-13] : 10

Query: Look up weed control effect (activity level), Veronica polita for this molecule: Oc1cc(Cl)nnc1-c1ccnc(F)c1 [Compound 2-3]
Result: 10

----------
Recorded comparison experiment (activity level), Digitaria sanguinalis, one value per entry.
- Tested on: monocotyledonous and dicotyledonous weed
- procedure text: Post-emergence test, weed control effect (Tables 6 and 7)
- Assay type: in vivo
- Set-up: key: 10: completely dead; above 90% growth inhibition rate; above 80% growth inhibition rate; above 70% growth inhibition rate; above 60% growth inhibition rate; above 50% growth inhibition rate; above 40% growth inhibition rate; above 30% growth inhibition rate; above 20% growth inhibition rate; 1: below 20% growth inhibition rate; 0: no effect
- condition label: Dose 300 g/ha
Write the value as a bare number.

CCCCCCCCSC(=O)Oc1cc(Cl)nnc1-c1ccccc1 [Control Compound B, reference compound] : 0

Query: Reported comparison experiment (activity level), Digitaria sanguinalis, compound Oc1cc(Cl)nnc1-c1ccnc(F)c1 : ____
Result: 10

----------
- Test system: monocotyledonous and dicotyledonous weed
- procedure text: Post-emergence test, weed control effect (Tables 6 and 7)
- Format: in vivo
- condition label: Dose 300 g/ha
The following compounds are shown together with reported comparison experiment (activity level), Digitaria sanguinalis values.

Observe how each entry below is paired with its result.
Oc1cc(Cl)nnc1-c1cccnc1 [Compound 1-1] : 7 (above 70% growth inhibition rate)
Oc1cc(Cl)nnc1-c1cncc(F)c1 [Compound 1-4] : 8 (above 80% growth inhibition rate)

Please look at the following compound next.
Query: What does the record list as comparison experiment (activity level), Digitaria sanguinalis for Oc1cc(Cl)nnc1-c1cccnc1F [Compound 1-2] ?
Result: 8 (above 80% growth inhibition rate)
